SYSTEM_UNDER_TEST: Cannabinoid receptor 1 (Homo sapiens, UniProt P21554)
Sequence (P21554 whole entry): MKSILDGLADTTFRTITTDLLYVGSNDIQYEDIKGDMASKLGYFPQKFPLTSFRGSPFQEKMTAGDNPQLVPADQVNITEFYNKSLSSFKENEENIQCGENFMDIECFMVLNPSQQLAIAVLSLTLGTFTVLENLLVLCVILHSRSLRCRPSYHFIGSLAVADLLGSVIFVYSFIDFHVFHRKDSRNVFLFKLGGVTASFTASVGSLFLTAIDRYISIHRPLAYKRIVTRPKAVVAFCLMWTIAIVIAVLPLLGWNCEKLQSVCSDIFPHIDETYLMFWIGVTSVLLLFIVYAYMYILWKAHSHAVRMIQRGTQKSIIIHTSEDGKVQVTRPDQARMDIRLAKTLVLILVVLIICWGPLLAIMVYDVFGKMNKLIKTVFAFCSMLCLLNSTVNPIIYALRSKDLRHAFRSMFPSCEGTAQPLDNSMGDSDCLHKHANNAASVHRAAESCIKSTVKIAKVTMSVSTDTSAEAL
ASSAY_TEXT: Positive allosteric modulatory activity at human CB1 receptor expressed in CHO-K1 cells assessed as increase in CP55940-induced inhibition of forskolin-stimulated cAMP production preincubated for 30 mins […] by Hit-hunter assay
Type: functional, cell-based
MEASURED_PARAMETER: pEC50
Numbers only, as −log10 of the molar value.

Recorded results for 5 compounds are shown here.
- COMPOUND: "O=[N+]([O-])CC(c1cccc(C(F)(F)F)c1)c1c(-c2ccccc2)[nH]c2ccccc12 (centres undefined)"
  pEC50: 6.90
- COMPOUND: "O=[N+]([O-])CC(c1ccc(N2CCCCC2)cc1)c1c(-c2ccccc2)[nH]c2ccccc12 (centres undefined)"
  pEC50: 6.32
- COMPOUND: "Cc1ccccc1C(C[N+](=O)[O-])c1c(-c2ccccc2)[nH]c2ccccc12 (centres undefined)"
  pEC50: 8.52
- COMPOUND: "O=[N+]([O-])CC(c1c(-c2ccccc2)[nH]c2ccccc12)C1CCCCC1 (centres undefined)"
  pEC50: 6.31
- COMPOUND: "O=[N+]([O-])CC(c1ccccc1C(F)(F)F)c1c(-c2ccccc2)[nH]c2ccccc12 (centres undefined)"
  pEC50: 6.25

pEC50 reported for this compound O=[N+]([O-])CC(c1ccc[nH]1)c1c(-c2ccccc2)[nH]c2ccccc12 (centres undefined) : 6.68

----------
SYSTEM_UNDER_TEST: Cannabinoid receptor 1 (Homo sapiens, UniProt P21554)
ASSAY_TEXT: Positive allosteric modulatory activity at human CB1 receptor expressed in CHO-K1 cells assessed as increase in CP55940-induced inhibition of forskolin-stimulated cAMP production preincubated for 30 mins […] by Hit-hunter assay
Type: functional, cell-based
MEASURED_PARAMETER: pEC50
Numbers only, as −log10 of the molar value.

Recorded results for 5 compounds are shown here.
- COMPOUND: "O=[N+]([O-])CC(c1ccc2ccccc2c1)c1c(-c2ccccc2)[nH]c2ccccc12 (centres undefined)"
  SYSTEM_UNDER_TEST: "Cannabinoid receptor 1 (Homo sapiens, UniProt P21554)"
  pEC50: 6.32
- COMPOUND: "O=[N+]([O-])CC(Cc1ccccc1)c1c(-c2ccccc2)[nH]c2ccccc12 (centres undefined)"
  SYSTEM_UNDER_TEST: "Cannabinoid receptor 1 (Homo sapiens, UniProt P21554)"
  pEC50: 6.38
- COMPOUND: "O=[N+]([O-])CC(c1cccc(Cl)c1)c1c(-c2ccccc2)[nH]c2ccccc12 (centres undefined)"
  SYSTEM_UNDER_TEST: "Cannabinoid receptor 1 (Homo sapiens, UniProt P21554)"
  pEC50: 6.07
- COMPOUND: "COc1ccccc1C(C[N+](=O)[O-])c1c(-c2ccccc2)[nH]c2ccccc12 (centres undefined)"
  SYSTEM_UNDER_TEST: "Cannabinoid receptor 1 (Homo sapiens, UniProt P21554)"
  pEC50: 6.39
- COMPOUND: "Cn1ccnc1C(C[N+](=O)[O-])c1c(-c2ccccc2)[nH]c2ccccc12 (centres undefined)"
  SYSTEM_UNDER_TEST: "Cannabinoid receptor 1 (Homo sapiens, UniProt P21554)"
  pEC50: 6.27

Could I get pEC50 for every one of these entries?
1. O=[N+]([O-])CC(c1nccs1)c1c(-c2ccccc2)[nH]c2ccccc12 (centres undefined)
2. O=[N+]([O-])CC(c1ccc(N2CCCC2)cc1)c1c(-c2ccccc2)[nH]c2ccccc12 (centres undefined)
3. O=[N+]([O-])CC(c1ccccc1Cl)c1c(-c2ccccc2)[nH]c2ccccc12 (centres undefined)

Key:
1: 6.72; 2: 6.21; 3: 7.74

Could I get pEC50 for every one of these entries?
1. O=[N+]([O-])CC(c1cccs1)c1c(-c2ccccc2)[nH]c2ccccc12 (centres undefined)
2. O=[N+]([O-])CC(c1ncco1)c1c(-c2ccccc2)[nH]c2ccccc12 (centres undefined)
3. Cc1ccc2c(C(C[N+](=O)[O-])c3nccs3)c(-c3ccccc3)[nH]c2c1 (centres undefined)
4. O=[N+]([O-])CC(c1c(Cl)cccc1Cl)c1c(-c2ccccc2)[nH]c2ccccc12 (centres undefined)
5. Cc1ccc2c(C(C[N+](=O)[O-])c3cccs3)c(-c3ccccc3)[nH]c2c1 (centres undefined)
6. Cc1ccc2c(C(C[N+](=O)[O-])c3ncco3)c(-c3ccccc3)[nH]c2c1 (centres undefined)
7. Cc1cccc(C(C[N+](=O)[O-])c2c(-c3ccccc3)[nH]c3ccccc23)c1 (centres undefined)

Key:
1: 7.51; 2: 6.07; 3: 7.30; 4: 6.24; 5: 7.48; 6: 6.58; 7: 6.18

Item O=[N+]([O-])CC(c1cccc(N2CCCC2)c1)c1c(-c2ccccc2)[nH]c2ccccc12 (centres undefined) ; assay system Cannabinoid receptor 1 (Homo sapiens, UniProt P21554); pEC50 reported as 6.37
